System: 958667-338-R-J2-PDC tumor spheroids viability
Method notes: Anticancer human tumor 958667-338-R-J2-PDC patient-derived colon adenocarcinoma cell line growth inhibition [PI3K]
Test conditions: second compound 0.0316 µM; first compound 0.00316 µM; stronger effect = lower value; spheroids with HUVEC and MSC
Attribute measured: viability, T/C (%)
Response body: numeric value in %, unit text excluded.

Tell me viability, T/C of CC(C)n1nc(-c2ccc3oc(N)nc3c2)c2c(N)ncnc21 + Cc1nc(NC(=O)N2CCCC2C(N)=O)sc1-c1ccnc(C(C)(C)C(F)(F)F)c1 when tested on 958667-338-R-J2-PDC tumor spheroids viability.
80.9

Print 958667-338-R-J2-PDC tumor spheroids viability viability, T/C for CC(C)n1nc(-c2ccc3oc(N)nc3c2)c2c(N)ncnc21 + CC(Nc1ncnc2nc[nH]c12)c1cc2cccc(Cl)c2c(=O)n1-c1ccccc1 .
98.5

Give 958667-338-R-J2-PDC tumor spheroids viability viability, T/C for the following compound: CC(=O)c1c(C)c2cnc(Nc3ccc(N4CCNCC4)cn3)nc2n(C2CCCC2)c1=O + CC(Nc1ccc2c(c1)OCCn1cc(N3C(=O)OCC3C(F)F)nc1-2)C(N)=O
78.3

Give viability, T/C only, for CC(=O)c1c(C)c2cnc(Nc3ccc(N4CCNCC4)cn3)nc2n(C2CCCC2)c1=O + Cc1nc(NC(=O)N2CCCC2C(N)=O)sc1-c1ccnc(C(C)(C)C(F)(F)F)c1 , using 958667-338-R-J2-PDC tumor spheroids viability data.
96

Consider the compound Cn1ncnc1[C@H]1c2n[nH]c(=O)c3cc(F)cc(c23)N[C@@H]1c1ccc(F)cc1 + CC(Nc1ccc2c(c1)OCCn1cc(N3C(=O)OCC3C(F)F)nc1-2)C(N)=O tested on 958667-338-R-J2-PDC tumor spheroids viability; state its viability, T/C.
77.7

----------
I'd appreciate it if you could supply viability, T/C values for the items below.
Tested on: 958667-338-R-J2-PDC tumor spheroids viability
Method notes: Anticancer human tumor 958667-338-R-J2-PDC cell line growth inhibition [PI3K];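 further: spheroids exposed to compounds for seven days before readout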
Test conditions: second compound 0.00316 µM; first compound 0.316 µM; stronger effect = lower value; spheroids with HUVEC and MSC
Unit % implied. Number only.

In one line, give reported viability, T/C of the entry C#Cc1c(F)ccc2cc(O)cc(-c3ncc4c(N5CC6CCC(C5)N6)nc(OCC56CCCN5CC(F)C6)nc4c3F)c12 (configuration not stated) + COc1c(OCCCN2CCOCC2)ccc2c3n(c(=NC(=O)c4cnc(N)nc4)nc12)CCN3 .
83.9

In one line, give reported viability, T/C of the entry CC(C)NCC(C(=O)N1CCN(c2ncnc3c2C(C)CC3O)CC1)c1ccc(Cl)cc1 (configuration not stated) + COc1c(OCCCN2CCOCC2)ccc2c3n(c(=NC(=O)c4cnc(N)nc4)nc12)CCN3 .
74

Fill in viability, T/C for record Cn1nccc1Nc1nccc(-c2ccn(C(CO)c3ccc(Cl)c(F)c3)c(=O)c2)n1 (configuration not stated) + COc1c(OCCCN2CCOCC2)ccc2c3n(c(=NC(=O)c4cnc(N)nc4)nc12)CCN3
97.9

State its viability, T/C for this compound: C[C@@H](NC(=O)c1ncnc(N)c1Cl)c1ncc(C(=O)Nc2cc(C(F)(F)F)c(Cl)cn2)s1 + CC(Nc1ccc2c(c1)OCCn1cc(N3C(=O)OCC3C(F)F)nc1-2)C(N)=O
87.5

Specify measured viability, T/C for CC(Cn1ccc(-c2ccc(C#N)c(Cl)c2)n1)NC(=O)c1cc(C(C)O)[nH]n1 (configuration not stated) + CC(Nc1ccc2c(c1)OCCn1cc(N3C(=O)OCC3C(F)F)nc1-2)C(N)=O .
126

Find the measured viability, T/C of C=CC(=O)N1CCN(c2nc(=O)n(-c3c(C)ccnc3C(C)C)c3nc(-c4c(O)cccc4F)c(F)cc23)C(C)C1 (configuration not stated) + COc1c(OCCCN2CCOCC2)ccc2c3n(c(=NC(=O)c4cnc(N)nc4)nc12)CCN3 and report it.
88.8

Determine its reported viability, T/C: CNC(=O)c1ccc(N2C(=S)N(c3ccc(C#N)c(C(F)(F)F)c3)C(=O)C2(C)C)cc1F + CC(Nc1ccc2c(c1)OCCn1cc(N3C(=O)OCC3C(F)F)nc1-2)C(N)=O
93.4

----------
Tested on: 958667-338-R-J2-PDC tumor spheroids viability
Method notes: Anticancer human tumor 958667-338-R-J2-PDC cell line growth inhibition [PI3K];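 further: spheroids exposed to compounds for seven days before readout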
Test conditions: curve of first compound; second compound 0.1 µM; spheroids with HUVEC and MSC
Kindly supply the reported IC50 values for the records listed here.

Input CCN1CCN(Cc2ccc(Nc3ncc(F)c(-c4cc(F)c5nc(C)n(C(C)C)c5c4)n3)nc2)CC1 + Cc1nc(NC(=O)N2CCCC2C(N)=O)sc1-c1ccnc(C(C)(C)C(F)(F)F)c1 , output reported IC50.
> 1000 nM

Give reported IC50 value for Cn1ncnc1[C@H]1c2n[nH]c(=O)c3cc(F)cc(c23)N[C@@H]1c1ccc(F)cc1 + Cc1nc(NC(=O)N2CCCC2C(N)=O)sc1-c1ccnc(C(C)(C)C(F)(F)F)c1
> 100 nM

Fill in IC50 for record CC1(C)CCC(CN2CCN(c3ccc(C(=O)NS(=O)(=O)c4ccc(NCC5CCOCC5)c([N+](=O)[O-])c4)c(Oc4cnc5[nH]ccc5c4)c3)CC2)=C(c2ccc(Cl)cc2)C1 + CC(Nc1ncnc2nc[nH]c12)c1cc2cccc(Cl)c2c(=O)n1-c1ccccc1
> 10000 nM

In one line, give reported IC50 of the entry CCN1CCN(Cc2ccc(Nc3ncc(F)c(-c4cc(F)c5nc(C)n(C(C)C)c5c4)n3)nc2)CC1 + CC(Nc1ncnc2nc[nH]c12)c1cc2cccc(Cl)c2c(=O)n1-c1ccccc1 .
> 1000 nM

Quote IC50 reported for Cn1nccc1Nc1nccc(-c2ccn(C(CO)c3ccc(Cl)c(F)c3)c(=O)c2)n1 (stereo not given) + Cc1nc(NC(=O)N2CCCC2C(N)=O)sc1-c1ccnc(C(C)(C)C(F)(F)F)c1 please.
> 10000 nM

----------
System: 958667-338-R-J2-PDC tumor spheroids viability
Method notes: Anticancer human tumor 958667-338-R-J2-PDC cell line growth inhibition [PI3K];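 further: spheroids exposed to compounds for seven days before readout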
Test conditions: curve of first compound; second compound 0.1 µM; spheroids with HUVEC and MSC
pIC50: −log10 of the molar value.
Could you please report measured pIC50 for the items listed next?

Read the entry CNC(=O)c1ccc(N2C(=S)N(c3ccc(C#N)c(C(F)(F)F)c3)C(=O)C2(C)C)cc1F + CC(Nc1ncnc2nc[nH]c12)c1cc2cccc(Cl)c2c(=O)n1-c1ccccc1 and write its reported pIC50.
< 5.00

Give pIC50 for the following compound: CC(=O)c1c(C)c2cnc(Nc3ccc(N4CCNCC4)cn3)nc2n(C2CCCC2)c1=O + COc1c(OCCCN2CCOCC2)ccc2c3n(c(=NC(=O)c4cnc(N)nc4)nc12)CCN3
< 7.00

Give a short answer stating reported pIC50 for C[C@@H](NC(=O)c1ncnc(N)c1Cl)c1ncc(C(=O)Nc2cc(C(F)(F)F)c(Cl)cn2)s1 + Cc1nc(NC(=O)N2CCCC2C(N)=O)sc1-c1ccnc(C(C)(C)C(F)(F)F)c1 .
< 5.00

Name the recorded pIC50 of the compound listed here: Cn1ncnc1[C@H]1c2n[nH]c(=O)c3cc(F)cc(c23)N[C@@H]1c1ccc(F)cc1 + CC(Nc1ncnc2nc[nH]c12)c1cc2cccc(Cl)c2c(=O)n1-c1ccccc1
< 7.00

Look up and report measured pIC50 for this entry: CNC(=O)c1ccc(N2C(=S)N(c3ccc(C#N)c(C(F)(F)F)c3)C(=O)C2(C)C)cc1F + Cc1nc(NC(=O)N2CCCC2C(N)=O)sc1-c1ccnc(C(C)(C)C(F)(F)F)c1
< 5.00

----------
Tested on: 958667-338-R-J2-PDC tumor spheroids viability
Method notes: Anticancer human tumor 958667-338-R-J2-PDC cell line growth inhibition [PI3K];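 further: spheroids exposed to compounds for seven days before readout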
Test conditions: second compound 0.1 µM; first compound 0.001 µM; stronger effect = lower value; spheroids with HUVEC and MSC
Hi there, I'd appreciate the recorded viability, T/C for every entry that follows.
Report only the number, with the unit % understood.

Enter recorded viability, T/C with 958667-338-R-J2-PDC tumor spheroids viability for CC(=O)c1c(C)c2cnc(Nc3ccc(N4CCNCC4)cn3)nc2n(C2CCCC2)c1=O + CC(Nc1ncnc2nc[nH]c12)c1cc2cccc(Cl)c2c(=O)n1-c1ccccc1 here.
103

Give measured viability, T/C for CC(C)n1nc(-c2ccc3oc(N)nc3c2)c2c(N)ncnc21 + CC(Nc1ncnc2nc[nH]c12)c1cc2cccc(Cl)c2c(=O)n1-c1ccccc1 (958667-338-R-J2-PDC tumor spheroids viability).
101

Write viability, T/C of CC(=O)c1c(C)c2cnc(Nc3ccc(N4CCNCC4)cn3)nc2n(C2CCCC2)c1=O + COc1c(OCCCN2CCOCC2)ccc2c3n(c(=NC(=O)c4cnc(N)nc4)nc12)CCN3 ; system used: 958667-338-R-J2-PDC tumor spheroids viability
61.8

Answer with viability, T/C of CC(C)n1nc(-c2ccc3oc(N)nc3c2)c2c(N)ncnc21 + CC(Nc1ccc2c(c1)OCCn1cc(N3C(=O)OCC3C(F)F)nc1-2)C(N)=O measured for 958667-338-R-J2-PDC tumor spheroids viability.
86.9

Specify the recorded viability, T/C for CC(=O)c1c(C)c2cnc(Nc3ccc(N4CCNCC4)cn3)nc2n(C2CCCC2)c1=O + CC(Nc1ccc2c(c1)OCCn1cc(N3C(=O)OCC3C(F)F)nc1-2)C(N)=O , system: 958667-338-R-J2-PDC tumor spheroids viability.
87.4

Find viability, T/C for Cn1ncnc1[C@H]1c2n[nH]c(=O)c3cc(F)cc(c23)N[C@@H]1c1ccc(F)cc1 + Cc1nc(NC(=O)N2CCCC2C(N)=O)sc1-c1ccnc(C(C)(C)C(F)(F)F)c1 on 958667-338-R-J2-PDC tumor spheroids viability and write it down.
96.7

Report viability, T/C on 958667-338-R-J2-PDC tumor spheroids viability for this entry: CC(=O)c1c(C)c2cnc(Nc3ccc(N4CCNCC4)cn3)nc2n(C2CCCC2)c1=O + Cc1nc(NC(=O)N2CCCC2C(N)=O)sc1-c1ccnc(C(C)(C)C(F)(F)F)c1
96.8
